Listing of recorded Ratio Ki by entry.
assay: Selectivity ratio of Ki for binding affinity to bovine thrombin assessed as inhibition constant using tosyl-Gly-Pro-Arg-AMC as substrate to Ki for binding affinity to N-terminal MRGS(His)6GSDDDDK-tagged Matriptase (unknown origin) expressed in Escherichia coli assessed as inhibition constant using Mes-DArg-Pro-Arg-AMC as substrate; conditions: Homo sapiens

| compound | Ratio Ki |
| --- | --- |
| CC(C)(C)NC(=O)NC1CCN(C(=O)[C@H](Cc2cccc(C(=N)N)c2)NS(=O)(=O)c2cccc(-c3ccc(COC(C)(C)C)cc3)c2)CC1 | 15 |
| COc1ccc(-c2cccc(S(=O)(=O)N[C@@H](Cc3cccc(C(=N)N)c3)C(=O)N3CCC(NC(=O)NC(C)(C)C)CC3)c2)c(OC)c1 | 600 |
| CC(C)Oc1ccc(-c2cccc(S(=O)(=O)N[C@@H](Cc3cccc(C(=N)N)c3)C(=O)N3CCC(NC(=O)NC(C)(C)C)CC3)c2)cc1 | 89 |
| CC(C)(C)NC(=O)NC1CCN(C(=O)[C@H](Cc2cccc(C(=N)N)c2)NS(=O)(=O)c2cccc(-c3cc(F)c(CO)c(F)c3)c2)CC1 | 492 |
| CC(C)(C)NC(=O)NC1CCN(C(=O)[C@H](Cc2cccc(C(=N)N)c2)NS(=O)(=O)c2cccc(-c3ccc(CO)cc3)c2)CC1 | 1090 |
| CC(C)(C)NC(=O)NC1CCN(C(=O)[C@H](Cc2cccc(C(=N)N)c2)NS(=O)(=O)c2cccc(-c3cccc(CO)c3)c2)CC1 | 8.3 |
| COc1ccc(-c2cccc(S(=O)(=O)N[C@@H](Cc3cccc(C(=N)N)c3)C(=O)N3CCN(C(=O)C(C)(C)C)CC3)c2)c(OC)c1 | 0.3 |
| COc1ccc(-c2cccc(S(=O)(=O)N[C@@H](Cc3cccc(C(=N)N)c3)C(=O)N3CCN(C(=O)NC(C)(C)C)CC3)c2)c(OC)c1 | 0.7 |
| CNC(=O)NC1CCN(C(=O)[C@H](Cc2cccc(C(=N)N)c2)NS(=O)(=O)c2cccc(-c3ccc(OC)cc3OC)c2)CC1 | 3.4 |
| CC(C)(C)NC(=O)NC1CCN(C(=O)[C@H](Cc2cccc(C(=N)N)c2)NS(=O)(=O)c2cccc(-c3ccc(CN)cc3)c2)CC1 | 138 |
| COCc1ccc(-c2cccc(S(=O)(=O)N[C@@H](Cc3cccc(C(=N)N)c3)C(=O)N3CCC(NC(=O)NC(C)(C)C)CC3)c2)cc1 | 199 |
| COc1ccc(-c2cccc(S(=O)(=O)N[C@@H](Cc3cccc(C(=N)N)c3)C(=O)N3CCN(C(=O)OC(C)(C)C)CC3)c2)c(OC)c1 | 0.7 |

---

Listing of recorded Ki by entry.
Biological target: Suppressor of tumorigenicity 14 protein (Homo sapiens, UniProt Q9Y5Y6)
Sequence (Q9Y5Y6 whole entry): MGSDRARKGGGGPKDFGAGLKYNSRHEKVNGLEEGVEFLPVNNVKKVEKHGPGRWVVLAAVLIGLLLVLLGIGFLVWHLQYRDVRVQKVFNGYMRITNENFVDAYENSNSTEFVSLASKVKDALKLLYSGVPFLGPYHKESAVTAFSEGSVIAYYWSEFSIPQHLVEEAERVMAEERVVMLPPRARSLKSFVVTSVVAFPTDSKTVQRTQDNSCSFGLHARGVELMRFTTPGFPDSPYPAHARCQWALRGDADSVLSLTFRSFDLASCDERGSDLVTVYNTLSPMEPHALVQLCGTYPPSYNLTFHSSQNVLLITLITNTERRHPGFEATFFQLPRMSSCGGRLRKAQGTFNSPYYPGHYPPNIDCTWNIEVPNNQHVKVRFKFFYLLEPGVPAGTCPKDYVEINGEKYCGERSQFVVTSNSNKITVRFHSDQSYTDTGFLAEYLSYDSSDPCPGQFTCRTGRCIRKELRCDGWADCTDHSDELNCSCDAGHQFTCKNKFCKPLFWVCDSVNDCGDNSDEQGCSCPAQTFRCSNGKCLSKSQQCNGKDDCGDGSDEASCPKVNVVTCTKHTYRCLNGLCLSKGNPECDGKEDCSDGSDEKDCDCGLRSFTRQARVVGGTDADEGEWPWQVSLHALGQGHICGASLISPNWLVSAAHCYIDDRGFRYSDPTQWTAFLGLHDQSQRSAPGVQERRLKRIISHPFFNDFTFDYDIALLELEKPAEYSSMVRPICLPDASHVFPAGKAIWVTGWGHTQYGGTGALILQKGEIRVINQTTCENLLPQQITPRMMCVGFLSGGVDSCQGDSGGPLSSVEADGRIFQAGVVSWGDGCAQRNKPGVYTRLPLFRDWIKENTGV

| compound | Ki |
| --- | --- |
| CNC(=O)NC1CCN(C(=O)[C@H](Cc2cccc(C(=N)N)c2)NS(=O)(=O)c2cccc(-c3ccc(OC)cc3OC)c2)CC1 | 26 nM |
| COCc1ccc(-c2cccc(S(=O)(=O)N[C@@H](Cc3cccc(C(=N)N)c3)C(=O)N3CCC(NC(=O)NC(C)(C)C)CC3)c2)cc1 | 9 nM |
| CC(C)(C)NC(=O)NC1CCN(C(=O)[C@H](Cc2cccc(C(=N)N)c2)NS(=O)(=O)c2cccc(-c3ccc(C(=N)N)cc3)c2)CC1 | 0.8 nM |
| COc1ccc(-c2cccc(S(=O)(=O)N[C@@H](Cc3cccc(C(=N)N)c3)C(=O)N3CCC(NC(=O)NC(C)(C)C)CC3)c2)c(OC)c1 | 3 nM |
| CC(C)(C)NC(=O)NC1CCN(C(=O)[C@H](Cc2cccc(C(=N)N)c2)NS(=O)(=O)c2cccc(-c3ccc(CO)cc3)c2)CC1 | 11 nM |
| CC(C)(C)NC(=O)NC1CCN(C(=O)[C@H](Cc2cccc(C(=N)N)c2)NS(=O)(=O)c2cccc(-c3ccc(CO)c(F)c3)c2)CC1 | 15 nM |
| CC(C)(C)NC(=O)NC1CCN(C(=O)[C@H](Cc2cccc(C(=N)N)c2)NS(=O)(=O)c2cccc(-c3ccc(F)c(CO)c3)c2)CC1 | 50 nM |
| CC(C)(C)NC(=O)NC1CCN(C(=O)[C@H](Cc2cccc(C(=N)N)c2)NS(=O)(=O)c2cccc(-c3ccc(N)nc3)c2)CC1 | 3 nM |
| CC(C)(C)NC(=O)NC1CCN(C(=O)[C@H](Cc2cccc(C(=N)N)c2)NS(=O)(=O)c2cccc(-c3cccc(CN)c3)c2)CC1 | 1 nM |

---

test: Selectivity ratio of Ki for binding affinity to bovine thrombin assessed as inhibition constant using tosyl-Gly-Pro-Arg-AMC as substrate to Ki for binding affinity to N-terminal MRGS(His)6GSDDDDK-tagged Matriptase (unknown origin) expressed in Escherichia coli assessed as inhibition constant using Mes-DArg-Pro-Arg-AMC as substrate; settings: Homo sapiens
measurement label: Ratio Ki

| compound | val |
| --- | --- |
| CC(C)(C)NC(=O)NC1CCN(C(=O)[C@H](Cc2cccc(C(=N)N)c2)NS(=O)(=O)c2cccc(-c3cccc(C(=N)N)c3)c2)CC1 | 3640 |
| COc1ccc(-c2cccc(S(=O)(=O)N[C@@H](Cc3cccc(C(=N)N)c3)C(=O)N3CCN(C(=O)C4CCCCC4)CC3)c2)c(OC)c1 | 10 |
| COc1ccc(-c2cccc(S(=O)(=O)N[C@@H](Cc3cccc(C(=N)N)c3)C(=O)N3CCN(C(=O)NC4CCCCC4)CC3)c2)c(OC)c1 | 24 |
| CC(C)(C)NC(=O)NC1CCN(C(=O)[C@H](Cc2cccc(C(=N)N)c2)NS(=O)(=O)c2cccc(-c3ccc(Cl)cc3Cl)c2)CC1 | 35 |
| Cc1ccc(-c2cccc(S(=O)(=O)N[C@@H](Cc3cccc(C(=N)N)c3)C(=O)N3CCC(NC(=O)NC(C)(C)C)CC3)c2)cc1 | 59 |
| CC(C)(C)NC(=O)NC1CCN(C(=O)[C@H](Cc2cccc(C(=N)N)c2)NS(=O)(=O)c2cccc(-c3ccc(CO)c(F)c3)c2)CC1 | 1530 |
| CC(C)(C)NC(=O)NC1CCN(C(=O)[C@H](Cc2cccc(C(=N)N)c2)NS(=O)(=O)c2cccc(-c3ccc(N)nc3)c2)CC1 | 1420 |

---

organism: Homo sapiens; experiment: Selectivity ratio of Ki for binding affinity to FXa (unknown origin) using Mes-DArg-Pro-Arg-AMC as substrate to Ki for binding affinity to N-terminal MRGS(His)6GSDDDDK-tagged Matriptase (unknown origin ) expressed in Escherichia coli assessed as inhibition constant using Mes-DArg-Pro-Arg-AMC as substrate
Listing of recorded Ratio Ki by entry.

| compound | Ratio Ki |
| --- | --- |
| CC(C)(C)NC(=O)NC1CCN(C(=O)[C@H](Cc2cccc(C(=N)N)c2)NS(=O)(=O)c2cccc(-c3cccc(C(=N)N)c3)c2)CC1 | 13 |
| COCc1ccc(-c2cccc(S(=O)(=O)N[C@@H](Cc3cccc(C(=N)N)c3)C(=O)N3CCC(NC(=O)NC(C)(C)C)CC3)c2)cc1 | 20 |
| CC(C)Oc1ccc(-c2cccc(S(=O)(=O)N[C@@H](Cc3cccc(C(=N)N)c3)C(=O)N3CCC(NC(=O)NC(C)(C)C)CC3)c2)cc1 | 9.3 |
| CC(C)(C)NC(=O)NC1CCN(C(=O)[C@H](Cc2cccc(C(=N)N)c2)NS(=O)(=O)c2cccc(-c3ccc(CO)c(F)c3)c2)CC1 | 13 |
| CC(C)(C)NC(=O)NC1CCN(C(=O)[C@H](Cc2cccc(C(=N)N)c2)NS(=O)(=O)c2cccc(-c3ccc(F)c(CO)c3)c2)CC1 | 1 |
| CC(C)(C)NC(=O)NC1CCN(C(=O)[C@H](Cc2cccc(C(=N)N)c2)NS(=O)(=O)c2cccc(-c3ccc(COC(C)(C)C)cc3)c2)CC1 | 3.1 |
| COc1ccc(-c2cccc(S(=O)(=O)N[C@@H](Cc3cccc(C(=N)N)c3)C(=O)N3CCC(NC(=O)NC(C)C)CC3)c2)c(OC)c1 | 0.4 |
